# Test system: Burkitt's lymphoma (CA 46, ATCC No. CRL 1648)
# experiment_summary: Inhibition of tumor cell growth, MTT-assay, Burkitt's lymphoma
# Format: cell-based, human
# measurement_context: Homo sapiens, CA46, Table 2, 72 hours, read-out: IC50 Burkitts
pIC50: −log10 of the molar value.
reported_property: pIC50

structure_smiles_string=CC(=NNc1nc2ccccc2[nH]1)c1ccncn1 meas_value=6.25

====

# Tested on: HeLa (epitheloid cervix carcinoma)
# experiment_summary: Inhibition of tumor cell growth, SRB-assay, HeLa
# Assay type: cell-based, human
# measurement_context: Table 2, 72 hours, read-out: IC50 HeLa (converted)
reported_property: IC50 (nM)

structure_smiles_string=CC(=NNc1nc2ccccc2[nH]1)c1cnccn1 measurement_unit=nM meas_value=1710
structure_smiles_string=CC(=NNc1nc2ccccc2[nH]1)c1cnc(C)cn1 measurement_unit=nM meas_value=1490
structure_smiles_string=CC(=NNc1nc2ccccc2o1)c1ccc(C)nn1 measurement_unit=nM meas_value=1610
structure_smiles_string=CC(=NNc1nc2ccccc2o1)c1nccnc1C measurement_unit=nM meas_value=1870
structure_smiles_string=CC(=NNc1nc2ccccc2o1)c1ccc2ccccc2n1 measurement_unit=nM meas_value=4530
structure_smiles_string=CC(=NNc1nc2ccccc2o1)c1cc(C)ncn1 measurement_unit=nM meas_value=210
structure_smiles_string=CC(=NNc1nc2ccccc2[nH]1)c1nccnc1C measurement_unit=nM meas_value=3530
structure_smiles_string=CC(=NNc1nc2ccccc2o1)c1ccncn1 measurement_unit=nM meas_value=410
structure_smiles_string=CC(=NNc1nc2ccccc2[nH]1)c1ccc(C)nn1 measurement_unit=nM meas_value=1990
structure_smiles_string=CC(=NNc1nc2ccccc2o1)c1ncccn1 measurement_unit=nM meas_value=180
structure_smiles_string=CC(=NNc1nc2ccccc2[nH]1)c1cc(C)ncn1 measurement_unit=nM meas_value=890

====

Recorded IC90 values for a group of compounds are listed next.
# System: human tumor grafts (cell lines of FIG. 1)
# experiment_summary: Colony forming assay (two-layer soft agar)
# Type: cell-based
# measurement_context: mean values of all cell lines tested in FIG. 1; continuous exposure 3 to 6 days
reported_property: IC90 (µM)

compound="Cn1c(NN=C(c2ccccc2)c2ccccn2)nc2ccccc21 [Ia-29]" meas_value=4.66
compound="Cn1c(NN=C(c2ccccn2)C2CC2)nc2ccccc21 [Ia-24]" meas_value=3.14
compound="COc1ccnc(C(C)=NNc2nc3ccccc3n2C)c1 [Id-2]" meas_value=2.85
compound="CC(=NNc1nc2ccccc2n1C)c1ccc(-c2ccccc2)cn1 [Id-16]" meas_value=7.45
compound="C=CCn1c(NN=C(C)c2ccccn2)nc2ccccc21 [Ic-5]" meas_value=3.33
compound="CC(=NNc1nc2ccccc2n1C(C)C)c1ccccn1 [Ic-3]" meas_value=4.3
compound="CC(=NNc1nc2ccccc2n1C)c1cc(-c2ccccc2)ccn1 [Id-15]" meas_value=5.67
compound="CC(C)C(=NNc1nc2ccccc2n1C)c1ccccn1 [Ia-16]" meas_value=3.77
compound="CC(=NNc1nc2ccccc2n1C)c1ncccc1N(C)C [Id-11]" meas_value=2.9
compound="CC(=NNc1nc2ccccc2n1C)c1cc(C)ccn1 [Id-8]" meas_value=2.39
compound="CC(=NNc1nc2ccccc2n1C)c1cccc(Cl)n1 [Id-5]" meas_value=9.38
compound="Cn1c(NN=C(c2ccccn2)C(C)(C)C)nc2ccccc21 [Ia-20]" meas_value=0.231
compound="CCCC(=NNc1nc2ccccc2n1C)c1ccccn1 [Ia-12]" meas_value=3.74

FYI, the data here is from patent US7112680B2.
